Target: Tubulin alpha chain (Sus scrofa)
Assay: In vitro effective concentration required to reduce the amount of microtubules assembly by tubulin assay
Format: functional
ED50 strictly less than 10 µM = criterion met. Otherwise criterion not met.

>  <SMILES ENTRY>
CC(C)C[C@@H]1OC(=O)CCNC(=O)[C@@H](Cc2cccc(Cl)c2)NC(=O)/C=C/C[C@@H]([C@H](C)[C@H]2O[C@@H]2c2ccccc2)OC1=O

>  <CLASS NAME>
criterion met

$$$$
>  <SMILES ENTRY>
CC(C)C[C@@H]1OC(=O)CCNC(=O)[C@@H](Cc2ccccc2)NC(=O)/C=C/C[C@@H]([C@H](C)[C@H]2O[C@@H]2c2ccccc2)OC1=O

>  <CLASS NAME>
criterion not met

$$$$
>  <SMILES ENTRY>
CC(C)C[C@@H]1OC(=O)CCNC(=O)[C@@H](Cc2ccc(Cl)cc2)NC(=O)/C=C/C[C@@H]([C@H](C)[C@H]2O[C@@H]2c2ccccc2)OC1=O

>  <CLASS NAME>
criterion not met

$$$$
>  <SMILES ENTRY>
COc1ccc(C[C@H]2NC(=O)/C=C/C[C@@H]([C@H](C)[C@H]3O[C@@H]3c3ccccc3)OC(=O)[C@H](CC(C)C)OC(=O)[C@H](C)CNC2=O)cc1Cl

>  <CLASS NAME>
criterion met

$$$$
>  <SMILES ENTRY>
COc1ccc(C[C@H]2NC(=O)/C=C/C[C@@H]([C@H](C)[C@H]3O[C@@H]3c3ccccc3)OC(=O)[C@H](CC(C)C)OC(=O)CCNC2=O)cc1

>  <CLASS NAME>
criterion not met

$$$$

Turning to the following compound.
Asked: Here's an entry: `CC(C)C[C@@H]1OC(=O)CCNC(=O)[C@@H](Cc2ccc(Cl)c(Cl)c2)NC(=O)/C=C/C[C@@H]([C@H](C)[C@H]2O[C@@H]2c2ccccc2)OC1=O` . Is its ED50 below 10 µM?
Given back: criterion not met

Data provenance: ChEMBL document CHEMBL1148399
